biological target: PDGFRB(DKIN) (PDGFR-β) (Homo sapiens, UniProt P09619); construct: PDGFRB(DKIN); test: Phage-display competitive binding assay, PDGFRB(DKIN); settings: T7 phage displaying human PDGFR-β, DKIN construct; read-out: Binding Assay: PDGFRB(DKIN)
So I've got a bunch of molecules here, and I need their Kd values.

So what's the measured Kd for this one? CC(C)(C)c1cc(NC(=O)Nc2ccc(NC(=O)Cc3ccc(-c4ccccc4)cc3)cc2)no1 100 to 1000 nM

So what's the measured Kd for this one? CC(C)(C)c1cc(NC(=O)Nc2ccc(OCc3c(F)cccc3F)cc2)no1 < 100 nM

So what's the measured Kd for this one? CC(C)(C)c1cc(NC(=O)Nc2ccc(Nc3nc(Cl)nc4[nH]cnc34)cc2)no1 < 100 nM

So what's the measured Kd for this one? COc1ccc(C(=O)c2c[nH]c(C(=O)Nc3ccc(NC(=O)Nc4cc(C(C)(C)C)on4)cc3)c2)cc1 1000 to 10000 nM
